# credit: patent US8906852B2

biological target: VEGFR/KDR (Homo sapiens); construct: made in house; host or cells: Sf9 cells (Spodoptera frugiperda), baculovirus; experiment: VEGFR/KDR kinase inhibition, DELFIA assay; type: biochemical; details: ATP 0.6 uM (2x Km), enzyme 5 nM
parameter.measured: IC50

Solved entries (count: 3):
### Prompt Consider the compound `COCCN(Cc1ccc(-c2cc3nccc(Oc4ccc(NC(=O)NC5CC5)nc4)c3s2)nc1)C(C)=O` and give its measured IC50.
### Response 50 to 100 nM

### Prompt Consider the compound `O=C(Nc1ccc(Oc2ccnc3cc(-c4ccc(C(=O)NCCN5CCOCC5)cn4)sc23)c(F)c1)NC1CC1` and give its measured IC50.
### Response < 50 nM

### Prompt Consider the compound `CCN(CC)CCNC(=O)c1ccc(NCc2ccc(-c3cc4nccc(Oc5ccc(NC(=O)NC6CC6)cc5F)c4s3)nc2)cc1` and give its measured IC50.
### Response < 50 nM

Next up:
### Prompt Consider the compound `COCCN(Cc1ccc(-c2cc3nccc(Oc4ccc(NC(=O)NC5CC5)cc4F)c3s2)nc1)C(=O)NC(C)C` and give its measured IC50.
### Response < 50 nM

----------
This section presents compounds with their documented IC50 values.
Biological target: VEGFR/KDR (Homo sapiens)
Test: VEGFR/KDR kinase inhibition, DELFIA assay
Conditions: ATP 0.6 uM (2x Km), enzyme 5 nM
Method: Inhibition of VEGFR/KDR is measured in a DELFIA™ assay (Perkin Elmer). The substrate poly(Glu4, Tyr) is immobilized onto black high-binding polystyrene 96-well plates. The coated plates are washed and stored at 4° C. […] Phosphorylated product is detected by incubation with Europium-labeled anti-phosphotyrosine MoAb. After washing the plates, bound MoAb is detected by time-resolved fluorescence in a Gemini SpectraMax reader (Molecular Devices). […]

Solved entries (count: 3):
### Prompt Consider the compound CN(CCF)C1CCN(Cc2ccc(-c3cc4nccc(Oc5ccc(NC(=O)NC6CC6)cc5F)c4s3)nc2)CC1 [Compound 421] and give its measured IC50.
### Response < 50 nM

### Prompt Consider the compound CCNC(=O)N(CCOC)CCn1cnc(-c2cc3nccc(Oc4ccc(NC(=O)NC5CC5)cc4F)c3s2)c1 [Compound 256] and give its measured IC50.
### Response < 50 nM

### Prompt Consider the compound COCCNCc1ccc(-c2cc3nccc(Oc4ccc(NC(=O)CC5CC5)cc4F)c3s2)nc1 [Compound 13] and give its measured IC50.
### Response 50 to 100 nM

Next up:
### Prompt Consider the compound O=C(Nc1ccc(Oc2ccnc3cc(-c4ccc(CN5CCN(CCn6ccnc6)CC5)cn4)sc23)c(F)c1)NC1CC1 [Compound 54-G] and give its measured IC50.
### Response < 50 nM

----------
Target: VEGFR/KDR (Homo sapiens)
Assay: VEGFR/KDR kinase inhibition, DELFIA assay
Settings: ATP 0.6 uM (2x Km), enzyme 5 nM
Description: Inhibition of VEGFR/KDR is measured in a DELFIA™ assay (Perkin Elmer). The substrate poly(Glu4, Tyr) is immobilized onto black high-binding polystyrene 96-well plates. The coated plates are washed and stored at 4° C. […] Phosphorylated product is detected by incubation with Europium-labeled anti-phosphotyrosine MoAb. After washing the plates, bound MoAb is detected by time-resolved fluorescence in a Gemini SpectraMax reader (Molecular Devices). […]
parameter.measured: IC50

### Prompt Consider the molecule `CCNC(=O)N(CCOC)Cc1cnc(-c2cc3nccc(Oc4ccc(NC(=O)NC(C)C)cc4F)c3s2)n1C` and give its measured IC50.
### Response < 50 nM

New cases:
### Prompt Consider the molecule `O=C(Nc1ccc(Oc2ccnc3cc(-c4ccc(CNCCO)cn4)sc23)c(F)c1)NC1CC1` and give its measured IC50.
### Response < 50 nM

### Prompt Consider the molecule `COCCN(Cc1ccc(-c2cc3nccc(Oc4ccc(NC(=O)NC5CC5)cc4F)c3s2)cc1)C(C)=O` and give its measured IC50.
### Response < 50 nM

### Prompt Consider the molecule `C[C@H]1CN(Cc2ccc(-c3cc4nccc(Oc5ccc(NC(=O)NC6CC6)cc5F)c4s3)nc2)CCN1C(=O)CO` and give its measured IC50.
### Response < 50 nM

### Prompt Consider the molecule `O=C(Nc1ccc(Oc2ccnc3cc(-c4ccc(C(=O)N5CCN(CCOCCO)CC5)cn4)sc23)c(F)c1)NC1CC1` and give its measured IC50.
### Response < 50 nM

### Prompt Consider the molecule `N[C@@H]1CCN(Cc2ccc(-c3cc4nccc(Oc5ccc(NC(=O)NC6CC6)cc5F)c4s3)nc2)C1=O` and give its measured IC50.
### Response < 50 nM

----------
Molecular target: VEGFR/KDR (Homo sapiens, UniProt P35968)
Sequence (P35968 806-1356): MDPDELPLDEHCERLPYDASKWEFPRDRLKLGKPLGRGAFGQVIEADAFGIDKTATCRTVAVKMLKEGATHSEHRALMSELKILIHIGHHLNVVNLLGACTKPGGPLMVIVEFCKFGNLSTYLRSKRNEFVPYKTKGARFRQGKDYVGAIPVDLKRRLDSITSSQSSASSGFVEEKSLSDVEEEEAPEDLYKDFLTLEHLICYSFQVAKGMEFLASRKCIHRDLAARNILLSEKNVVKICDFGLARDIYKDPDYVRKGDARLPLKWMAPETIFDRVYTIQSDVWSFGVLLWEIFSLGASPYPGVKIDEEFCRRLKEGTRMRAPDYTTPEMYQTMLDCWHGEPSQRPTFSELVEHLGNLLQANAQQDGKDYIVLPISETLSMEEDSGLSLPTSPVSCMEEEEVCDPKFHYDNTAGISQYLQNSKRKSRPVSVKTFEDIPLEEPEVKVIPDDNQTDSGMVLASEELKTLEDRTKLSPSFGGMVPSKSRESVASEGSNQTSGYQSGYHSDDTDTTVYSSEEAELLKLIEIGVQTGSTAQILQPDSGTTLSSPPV
Experiment: VEGFR/KDR kinase inhibition, DELFIA assay
Settings: ATP 0.6 uM (2x Km), enzyme 5 nM
Procedure: Inhibition of VEGFR/KDR is measured in a DELFIA™ assay (Perkin Elmer). The substrate poly(Glu4, Tyr) is immobilized onto black high-binding polystyrene 96-well plates. The coated plates are washed and stored at 4° C. […] Phosphorylated product is detected by incubation with Europium-labeled anti-phosphotyrosine MoAb. After washing the plates, bound MoAb is detected by time-resolved fluorescence in a Gemini SpectraMax reader (Molecular Devices). […]
parameter.measured: IC50

Solved entries (count: 6):
### Prompt Consider the compound CS(=O)(=O)N1CCN(Cc2ccc(-c3cc4nccc(Oc5ccc(NC(=O)NC6CC6)cc5F)c4s3)nc2)CC1 [Compound 54-F] and give its measured IC50.
### Response < 50 nM

### Prompt Consider the compound COCCOCCOCCOCCN(Cc1ccc(-c2cc3nccc(Oc4ccc(NC(=O)NC5CC5)cc4F)c3s2)nc1)C(=O)CO [Compound 45] and give its measured IC50.
### Response < 50 nM

### Prompt Consider the compound O=C(O)CNC(=O)N1CCN(Cc2ccc(-c3cc4nccc(Oc5ccc(NC(=O)NC6CC6)cc5F)c4s3)nc2)CC1 [Compound 558] and give its measured IC50.
### Response < 50 nM

### Prompt Consider the compound CN1CCCN(Cc2ccc(-c3cc4nccc(Oc5ccc(NC(=O)NC6CC6)cc5F)c4s3)nc2)CC1 [Compound 54-B] and give its measured IC50.
### Response < 50 nM

### Prompt Consider the compound CN(CCO)C(=O)NC1CCN(Cc2ccc(-c3cc4nccc(Oc5ccc(NC(=O)NC6CC6)cc5F)c4s3)nc2)CC1 [Compound 358] and give its measured IC50.
### Response < 50 nM

### Prompt Consider the compound CS(=O)(=O)c1cccc(NC(=O)Nc2ccc(Oc3ccnc4cc(-c5ccc(C(=O)N6CCCC6)cc5)sc34)c(F)c2)c1 [Compound 130] and give its measured IC50.
### Response < 50 nM

New cases:
### Prompt Consider the compound CCNC(=O)N(CCOC)Cc1ccc(-c2cc3nccc(Oc4ccc(NC(=O)NC5CC5)nc4)c3s2)nc1 [Compound 37] and give its measured IC50.
### Response 100 to 250 nM

### Prompt Consider the compound O=C(Nc1ccc(Oc2ccnc3cc(C(=O)N4CCCCC4)sc23)c(F)c1)NC1CC1 [Compound 447] and give its measured IC50.
### Response < 50 nM

### Prompt Consider the compound N[C@H]1CCN(Cc2ccc(-c3cc4nccc(Oc5ccc(NC(=O)NC6CC6)cc5F)c4s3)nc2)C1 [Compound 495] and give its measured IC50.
### Response < 50 nM

### Prompt Consider the compound O=C(Nc1ccc(Oc2ccnc3cc(-c4ccc(CN5CCN(C(=O)[C@H]6CCC(=O)O6)CC5)cn4)sc23)c(F)c1)NC1CC1 [Compound 543] and give its measured IC50.
### Response < 50 nM

### Prompt Consider the compound O=C(Nc1ccc(Oc2ccnc3cc(-c4ccc(CN5CC[C@@H](O)C5)cn4)sc23)c(F)c1)NC1CC1 [Compound 53] and give its measured IC50.
### Response < 50 nM

### Prompt Consider the compound COCCN(Cc1ccc(-c2cc3nccc(Oc4ccc(NC(=O)NC5CC5)cc4F)c3s2)cc1)C(=O)CO [Compound 115-A] and give its measured IC50.
### Response < 50 nM

### Prompt Consider the compound CC(C)(C)C(=O)O[C@H]1CCN(C(=O)c2cc3nccc(Oc4ccc(NC(=O)NC5CC5)cc4F)c3s2)C1 [Compound 448] and give its measured IC50.
### Response 100 to 250 nM

### Prompt Consider the compound CCNC(=O)N(CCOC)Cc1ccc(-c2cc3nccc(Oc4ccc(NC(=S)NC5CC5)cc4F)c3s2)nc1 [Compound 503] and give its measured IC50.
### Response 50 to 100 nM

----------
This section presents compounds with their documented pIC50 values.
molecular target: VEGFR/KDR (Homo sapiens); test: VEGFR/KDR kinase inhibition, DELFIA assay; details: ATP 0.6 uM (2x Km), enzyme 5 nM
pIC50: −log10 of the molar value.

### Prompt Consider the compound `COCCN(Cc1cnc(-c2cc3nccc(Oc4ccc(NC(=O)NC5CC5)cc4F)c3s2)n1C)C(C)=O` and give its measured pIC50.
### Response > 7.30

### Prompt Consider the compound `CC(=O)NC1CCN(Cc2ccc(-c3cc4nccc(Oc5ccc(NC(=O)NC6CC6)cc5F)c4s3)nc2)CC1` and give its measured pIC50.
### Response > 7.30

### Prompt Consider the compound `O=C(Nc1ccc(Oc2ccnc3cc(-c4ccc(CN5CCC6(CC5)CCN(C(=O)CO)C6)cn4)sc23)c(F)c1)NC1CC1` and give its measured pIC50.
### Response > 7.30

### Prompt Consider the compound `CN(CCO)Cc1ccc(-c2cc3nccc(Oc4ccc(NC(=O)NC5CC5)cc4F)c3s2)nc1` and give its measured pIC50.
### Response > 7.30

### Prompt Consider the compound `COCCNCc1ccc(-c2cc3nccc(Oc4ccc(NC(=O)NC5CC5)c(F)c4F)c3s2)nc1` and give its measured pIC50.
### Response > 7.30

### Prompt Consider the compound `CN(CCO)C(=O)[C@@H]1CCCN1Cc1ccc(-c2cc3nccc(Oc4ccc(NC(=O)NC5CC5)cc4F)c3s2)nc1` and give its measured pIC50.
### Response > 7.30

Next up:
### Prompt Consider the compound `O=C(Nc1ccc(Oc2ccnc3cc(-c4ccc(CN5CCC(O)CC5)cn4)sc23)c(F)c1)NC1CC1` and give its measured pIC50.
### Response > 7.30
